Molecular target: Muscarinic acetylcholine receptor M2 (Rattus norvegicus, UniProt P10980)
Sequence (P10980 whole entry): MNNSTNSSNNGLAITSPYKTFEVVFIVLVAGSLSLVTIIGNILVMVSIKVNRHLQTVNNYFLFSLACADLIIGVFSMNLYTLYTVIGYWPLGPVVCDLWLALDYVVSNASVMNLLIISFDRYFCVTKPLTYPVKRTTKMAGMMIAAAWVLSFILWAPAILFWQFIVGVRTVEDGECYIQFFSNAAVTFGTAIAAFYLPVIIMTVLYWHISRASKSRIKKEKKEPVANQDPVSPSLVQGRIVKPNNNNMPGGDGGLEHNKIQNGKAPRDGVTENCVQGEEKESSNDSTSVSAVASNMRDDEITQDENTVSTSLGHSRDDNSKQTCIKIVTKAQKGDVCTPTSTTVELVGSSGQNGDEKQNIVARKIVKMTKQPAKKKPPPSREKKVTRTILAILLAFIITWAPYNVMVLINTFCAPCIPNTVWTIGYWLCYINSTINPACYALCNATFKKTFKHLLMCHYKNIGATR
Reported values of Ki for individual entries

Cc1nccn1CC1CCc2c(c3ccccc3n2C)C1=O (configuration not stated) [ONDANSETRON]    > 10 µM

State the recorded Ki for this entry: Cc1nccn1C[C@H]1CCc2c(c3cccc4c3n2CCC4)C1=O [CILANSETRON]
> 10 µM

The reported measurements were obtained from ChEMBL document CHEMBL1127031.
